meta.source: ChEMBL document CHEMBL1961873

Readings of inhibition for the listed molecules
# Target Or Test System: Casein kinase I isoform gamma-1 (Homo sapiens) (UniProt Q9HCP0);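 further: reported as mean inhibition, part of GSK PKIS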
# Sequence (Q9HCP0 whole entry, looked up, canonical isoform): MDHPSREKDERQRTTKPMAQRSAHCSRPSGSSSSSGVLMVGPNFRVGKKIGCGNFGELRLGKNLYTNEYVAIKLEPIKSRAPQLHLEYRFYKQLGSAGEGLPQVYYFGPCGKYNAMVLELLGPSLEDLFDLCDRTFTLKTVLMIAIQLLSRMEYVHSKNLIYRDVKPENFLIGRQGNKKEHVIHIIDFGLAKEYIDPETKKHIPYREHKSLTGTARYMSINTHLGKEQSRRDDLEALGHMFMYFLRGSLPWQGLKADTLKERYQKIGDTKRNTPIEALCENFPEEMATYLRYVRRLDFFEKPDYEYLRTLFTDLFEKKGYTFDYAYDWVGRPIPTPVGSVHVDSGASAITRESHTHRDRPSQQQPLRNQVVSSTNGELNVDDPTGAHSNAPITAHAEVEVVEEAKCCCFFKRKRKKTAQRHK
# Details: at 0.1 µM
Please reply with the bare figure in % and do not write the unit itself.

Here are 2 molecules together with their reported answers.
| Compound | inhibition (%) |
| --- | --- |
| Nc1nccc(-c2c(-c3ccc(F)cc3)nn3cc(C(F)(F)F)ccc23)n1 | 0.74 |
| CS(=O)(=O)Nc1cccc(-c2ccc3c(NC(=O)C4CC4)n[nH]c3c2)c1 | 0.64 |

Now look at this entry.
## Task Name the recorded inhibition for Cc1ccc2c(-c3ccnc(Nc4ccc5c(c4)OCCO5)n3)c(-c3ccc(C(F)(F)F)cc3)nn2n1 .
## Result 1.24
